B1: glmS ribozyme (parent)
chain: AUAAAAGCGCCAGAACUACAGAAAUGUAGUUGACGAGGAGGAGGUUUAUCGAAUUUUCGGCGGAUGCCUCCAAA

# Variants of: B1
# test-protocol: self-cleavage kobs at 10000 uM GlcN6P; higher = faster cleavage; RNA array
# applied-conditions: with glucosamine-6-phosphate
Fewer inactive variants are shown than the library holds.
Binary classification by self-cleavage kobs at 10000 uM GlcN6P, with 0.0004 s⁻¹ as an inclusive lower bound for true; all other cases are false.

mutation-list | label-value
A39C G44C C50G U55G C67U | false
G37C G40U U46G G63U | false
G35U U47C G51U | false
A33C G44C U57A A64U | false
C8U C11U A12U A36C A39G | false
A14C G40C | true
C8U C11A | false
A39U C67U | true
U54G C61U | false
A6U U69C | false
